Please respond with reported In vitro activity compared with native peptide (%) vs. Glucagon for every item in the list.
target: human GCG receptor (human, UniProt P47871 26-477); experiment: cell-based or functional assay
Sequence (P47871 26-477): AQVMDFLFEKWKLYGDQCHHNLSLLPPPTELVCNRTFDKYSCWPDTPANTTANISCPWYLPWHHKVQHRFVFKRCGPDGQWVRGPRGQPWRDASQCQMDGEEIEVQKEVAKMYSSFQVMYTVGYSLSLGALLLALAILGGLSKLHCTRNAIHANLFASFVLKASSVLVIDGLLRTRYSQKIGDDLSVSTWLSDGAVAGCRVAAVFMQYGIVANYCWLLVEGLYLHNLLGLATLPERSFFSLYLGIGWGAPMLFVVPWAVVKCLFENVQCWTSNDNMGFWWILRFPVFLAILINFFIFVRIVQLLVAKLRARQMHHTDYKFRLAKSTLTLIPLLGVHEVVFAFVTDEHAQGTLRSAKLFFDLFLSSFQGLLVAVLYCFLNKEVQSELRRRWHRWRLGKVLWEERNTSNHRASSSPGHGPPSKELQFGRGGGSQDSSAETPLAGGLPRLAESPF
Bridges are numbered along the chain shown (N, C = ends). Where no end group is shown, it is not given here. [ ]: non-standard residue; d: D form. The star is where a group is joined. Acetyl(2-(4-imidazolyl)) = O=C(Cc1c[nH]cn1)*; Aib = CC(C)(N)C(=O)O
Please state the figure in %; there is no need to write the unit.

Dear colleague, I am looking for the recorded In vitro activity compared with native peptide (%) vs. Glucagon of the following binder: H[Aib]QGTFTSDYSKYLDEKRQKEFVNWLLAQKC (bridge 16-20) [Triple agonist of SEQ ID NO: 34]
0.92

I would be grateful if you could share the reported In vitro activity compared with native peptide (%) vs. Glucagon for Y[Aib]QGTFTSDYSKYLDEKAAKEFVQWLLDHHPSSGQPPPSC (bridge 16-20) [Triple agonist of SEQ ID NO: 75] .
8.5

Can you share its In vitro activity compared with native peptide (%) vs. Glucagon? I mean this binder: H[Aib]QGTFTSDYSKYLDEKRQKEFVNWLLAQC (also: ring formation, positions not given here) [Triple agonist of SEQ ID NO: 56]
4.9

May I ask what In vitro activity compared with native peptide (%) vs. Glucagon has been recorded for H[Aib]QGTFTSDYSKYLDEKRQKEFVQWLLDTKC (bridge 16-20) [Triple agonist of SEQ ID NO: 78] ?
14

Look up In vitro activity compared with native peptide (%) vs. Glucagon for this binder: Y[Aib]QGTFTSDCSKYLDERAAKDFVQWLLDHHPSSGQPPPS (bridge 16-20) [Triple agonist of SEQ ID NO: 72]
1

Query: In vitro activity compared with native peptide (%) vs. Glucagon; subject: Y[Aib]QGTFTSDYSKYLDEKRAKEFVQWLLDHHCSSGQPPPS (bridge 16-20) [Triple agonist of SEQ ID NO: 43]
88.4

Entry Y[Aib]QGTFTSDYSKYLDECAAKDFVQWLLDHHPSSGQPPPS (also: ring formation, positions not given here) [Triple agonist of SEQ ID NO: 67] has what In vitro activity compared with native peptide (%) vs. Glucagon?
46.2

I would be grateful if you could share the reported In vitro activity compared with native peptide (%) vs. Glucagon for Y[Aib]QGTFTSDYSKALDEKAAKEFVQWLLDQHPSSGQPPPSC (bridge 16-20) [Triple agonist of SEQ ID NO: 100] .
12.7

Quick one: In vitro activity compared with native peptide (%) vs. Glucagon for Y[Aib]QGTFTSDYSKYLDEKAAKDFVQWLLDHHPSSGQPPPSC (bridge 16-20) [Triple agonist of SEQ ID NO: 77] ?
12.2

Any idea what In vitro activity compared with native peptide (%) vs. Glucagon was measured for {Acetyl(2-(4-imidazolyl))}-[Aib]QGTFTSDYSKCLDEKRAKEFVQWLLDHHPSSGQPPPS (bridge 15-19) [Triple agonist of SEQ ID NO: 74] ?
0.9

Give the measured In vitro activity compared with native peptide (%) vs. Glucagon of H[Aib]QGTFTSDYSKYLDEKAAKEFVQWLLNTC (bridge 16-20) [Triple agonist of SEQ ID NO: 29] .
6
